Test: Binding affinity to 5'-CTAACTGAATG-3'/3'-GATTGTCTTAC-5' duplex DNA (unknown origin) in sodium cacodylate buffer assessed as change in melting temperature at 10 uM at pH 7
quantity-kind: ΔTm (°C)
Quick note: give the figure in °C, leave out the unit.

Consider the following illustrative entries.
query-smiles	quantity-kind	measured
O=C(CCNCCC(=O)Nc1ccc2ccccc2n1)Nc1ccc2ccccc2n1	ΔTm	0.2
O=C(CCNCCC(=O)Nc1ccc2ccc3cccnc3c2n1)Nc1ccc2ccccc2n1	ΔTm	1.5

### Prompt Endpoint output: ΔTm of O=C(CCNCCC(=O)Nc1ccc2ccc3cccnc3c2n1)Nc1ccc2ccc3cccnc3c2n1 . Value?
### Response 1.4

### Prompt Could you tell me which ΔTm is on file for NCCC(=O)Nc1ccc2ccc3cccnc3c2n1 ?
### Response 1.3

###

Assay: Binding affinity to 5'-CTAACCGAATG-3'/3'-GATTGCCTTAC-5' duplex DNA (unknown origin) in sodium cacodylate buffer assessed as change in melting temperature at 10 uM at pH 7
ΔTm values by entry
Answer format: numeric, °C implied, no suffix.

Use the examples below as a reference point.
query-smiles	ΔTm / °C
O=C(CCNCCC(=O)Nc1ccc2ccc3cccnc3c2n1)Nc1ccc2ccccc2n1	2.6
O=C(CCNCCC(=O)Nc1ccc2ccccc2n1)Nc1ccc2ccccc2n1	2.6

### Prompt Endpoint output: ΔTm of NCCC(=O)Nc1ccc2ccc3cccnc3c2n1 . Value?
### Response 1.6

### Prompt // lookup ΔTm for O=C(CCNCCC(=O)Nc1ccc2ccc3cccnc3c2n1)Nc1ccc2ccc3cccnc3c2n1
### Response 7.8

###

Assay: Binding affinity to 5'-CTAACTGAATG-3'/3'-GATTGCCTTAC-5' duplex DNA (unknown origin) in sodium cacodylate buffer assessed as change in melting temperature at 10 uM at pH 7
quantity-kind: ΔTm (°C)
State the answer as a number, implicitly in °C.

Below are worked cases with known answers.
query-smiles	measured
O=C(CCNCCC(=O)Nc1ccc2ccc3cccnc3c2n1)Nc1ccc2ccc3cccnc3c2n1	4.4
O=C(CCNCCC(=O)Nc1ccc2ccc3cccnc3c2n1)Nc1ccc2ccccc2n1	2.3
O=C(CCNCCC(=O)Nc1ccc2ccccc2n1)Nc1ccc2ccccc2n1	0.7

Kindly review the next compound as well.
### Prompt For NCCC(=O)Nc1ccc2ccc3cccnc3c2n1 , what is its reported ΔTm?
### Response 0.4

###

Assay: Binding affinity to 5'-CTAACAGAATG-3'/3'-GATTGGCTTAC-5' duplex DNA (unknown origin) in sodium cacodylate buffer assessed as change in melting temperature at 10 uM at pH 7
Attribute: ΔTm
Report only the number, with the unit °C understood.

Here are 2 molecules together with their reported answers.
query-smiles	units	ΔTm
O=C(CCNCCC(=O)Nc1ccc2ccc3cccnc3c2n1)Nc1ccc2ccccc2n1	°C	-0.2
NCCC(=O)Nc1ccc2ccc3cccnc3c2n1	°C	1.2

### Prompt What ΔTm value was documented for this molecule, O=C(CCNCCC(=O)Nc1ccc2ccccc2n1)Nc1ccc2ccccc2n1 ?
### Response -0.4

### Prompt ΔTm lookup needed for O=C(CCNCCC(=O)Nc1ccc2ccc3cccnc3c2n1)Nc1ccc2ccc3cccnc3c2n1 , thanks.
### Response 1.5

###

Assay: Binding affinity to 5'-CTAACAGAATG-3'/3'-GATTGACTTAC-5' duplex DNA (unknown origin) in sodium cacodylate buffer assessed as change in melting temperature at 10 uM at pH 7
# ΔTm values compiled below
Numeric answer plus unit only.

As a guide, the following entries are already answered.
query-smiles	quantity-kind	measured
O=C(CCNCCC(=O)Nc1ccc2ccc3cccnc3c2n1)Nc1ccc2ccccc2n1	ΔTm	0 °C
NCCC(=O)Nc1ccc2ccc3cccnc3c2n1	ΔTm	1.3 °C
O=C(CCNCCC(=O)Nc1ccc2ccc3cccnc3c2n1)Nc1ccc2ccc3cccnc3c2n1	ΔTm	2.1 °C

In the following, a different compound is considered.
### Prompt For O=C(CCNCCC(=O)Nc1ccc2ccccc2n1)Nc1ccc2ccccc2n1 , what is its reported ΔTm?
### Response -0.5 °C
